Provenance of the data: patent US12466841B2

Exercise: state measured IC50 for each of the compounds provided.

Query CN(C)C[C@@H]1CN(c2ccc(Nc3ncc(-c4ccnc5c4ccn5C)c4c3C(=O)NC4)cc2)CCO1 (single isomer, unassigned) on HPK1 (Homo sapiens (Human)); IC50 returned: ≤ 100 nM

Query `Cc1ccc2c(-c3cnc(Nc4ccc(N5CCC(O)CC5)cc4)c4c3CNC4=O)cnn2c1` on HPK1 (Homo sapiens (Human)); IC50 returned: ≤ 100 nM

Query `Cn1ccc2c(-c3cnc(Nc4ccc(S(C)(=O)=O)cc4)c4c3CNC4=O)ccnc21` on HPK1 (Homo sapiens (Human)); IC50 returned: > 100 nM

Query `CN(C)Cc1cc(Nc2ncc(-c3ccnc4c3ccn4C)c3c2C(=O)NC3)ccc1N1CCOCC1` on HPK1 (Homo sapiens (Human)); IC50 returned: ≤ 100 nM

Query `CN(C)Cc1cc(Nc2ncc(-c3cnc4cc(F)ccn34)c3c2C(=O)NC3)ccc1[C@H]1CCOC1` on HPK1 (Homo sapiens (Human)); IC50 returned: ≤ 100 nM

Query `Cn1ccc2c(-c3cnc(Nc4ccc(N5CCC(O)CC5)nc4)c4c3CNC4=O)ccnc21` on HPK1 (Homo sapiens (Human)); IC50 returned: > 100 nM
